A collection of compounds and their measured GI50
tested on: SK-MEL-28 melanoma; assay: NCI tumour cell line growth inhibition, 48 h

SAMPLE SMILES	GI50
O=C(Nc1cc(Oc2cc(F)c(NC(=O)C3(C(=O)Nc4ccc(F)cc4)CC3)cc2F)ccn1)C1CC1	1.64 µM
O=C(NCc1ccco1)c1cccc(NC2=C(Cl)C(=O)N(Cc3ccccc3)C2=O)c1	16.4 µM
O=c1oc2ccc(-c3ccc(F)cc3F)cc2c(=O)n1-c1ccc(Cl)c(C(F)(F)F)c1	2.05 µM
COc1ccccc1NS(=O)(=O)c1ccc2oc(SC(C)C)nc2c1	37.5 µM
CCOC(=O)/C=C/C(=O)[C@H](CC(C)C)NC(=O)[C@H](Cc1ccccc1)NC(=O)OCc1ccccc1	3.12 µM
